Experiment: GST conjugation of CDNB with glutathione (HPLC)
Format: biochemical
Condition parameters: purified enzyme, 0.4 mM electrophilic substrate, 4 mM glutathione, 0.1 M MOPS pH 7.0

Molecule	activity of enzyme with CDNB
ceb5.pk0051.f8: maize class III GST enzyme encoded by cDNA clone, expressed in E. coli (protein) MAGETKKGLVLLDFWVSPFGQRCRIALAEKGIAYEYSEQELLGGAKSDILLRSNPVHKKIPVLLHDGRPVCESLVILEYLEEAFPEASPRLLPDAAYARAQARFWAAYSDKVYKAGTRLWKLRGDARAQARAEIVQVVRNLDGELGDKAFFGGEAFGFVDVALVPFVPWLPSYERYGDFSVAEIAPRLAAWARRCAQRESVARTLHPPEKVDEFINLLKKTYGIE	2136 nmol/min/mg
